# assay_system: Bromodomain-containing protein 4 (Homo sapiens)
# experimental_protocol: Binding affinity to human recombinant BRD4 BD2 (333 to 460 residues) by fluorescence polarization assay
pKi: −log10 of the molar value.
Assign 1.0 whenever pKi does not fall below 7; assign 0.0 whenever it does.

| compound | group |
| --- | --- |
| Cc1nnc2n1-c1ccc(-c3cnn(C)c3)cc1C(Nc1cccc3ccccc13)CC2 (stereo unspecified) | 1.0 |
| Cc1nnc2n1-c1ccc(C3=CCN(C)CC3)cc1C(Nc1ccc(Cl)cc1)CC2 (stereo unspecified) | 0.0 |

Now for another entry.
Determine whether this compound has pKi no lower than 7: Cc1nnc2n1-c1ccc(C3=CCNCC3)cc1C(Nc1ccc(Cl)cc1)CC2 (stereo unspecified) 0.0

Sourced from ChEMBL document CHEMBL4359905
